Data origin, for the record: the supplement of paper PMC6757056

B1: library; a variant is named by its letters at N, in order (parent)
chain: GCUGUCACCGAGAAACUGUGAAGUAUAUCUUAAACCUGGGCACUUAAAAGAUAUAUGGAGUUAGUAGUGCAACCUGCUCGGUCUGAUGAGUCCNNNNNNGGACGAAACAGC

- Variants of: B1
- Test protocol: normalized RNA/DNA level without ligand (relative to sTRSVctl = 100) (log10 (% of sTRSVctl)); HEK293T; ligand: cyclic di-GMP (c-di-GMP-II aptamer); higher = less ribozyme self-cleavage, higher mRNA level
- Measurement parameters: reporter: mCherry (pCS4076), ligand present: no
Property label: normalized RNA/DNA level without ligand (log10)

>>> df
    change  recorded_result
 0  ACUACG             1.61
 1  CAAAGA             1.47
 2  AGCUAC             1.71
 3  CAUUCA             1.38
 4  CGUUUA             1.32
 5  UCGCGG             1.78
 6  CAUCUA              1.4
 7  ACCGUC             1.73
 8  AACAGG              1.5
 9  GUCGUC             1.67
10  CCGAGA             1.46
11  UGCCGA             1.63
12  AGGGAC             1.55
13  UAACUU             1.65
14  CGUGAA             1.24
15  CAACAG              1.7
16  UAUAUU             1.68
17  UCGGAC             1.66
18  AUACAC             1.71
19  GCGAUG             1.59
20  CCAUCG             1.73
21  UACGCC             1.77
22  GAUAGC             1.64
23  AGUCAC             1.67
24  AGAAGC             1.56
25  CCGCGC             1.74
26  CGAGGG             1.62
27  UGGACG             1.78
28  GCUACU             1.66
29  GAGGCC             1.79
30  GUUUUC             1.69
31  CAGAUU             1.48
32  GUCUAA             1.56
33  GACGCA             1.77
34  CCCGGG             1.72
35  AAGUAC             1.66
36  CCUAUG             1.48
37  UACAUC             1.64
38  CGUAGC             1.73
39  CCUAUA             1.43
40  UGUGAC             1.64
41  AUCUAU             1.71
42  AGUCAA             1.48
43  AAAUGG              1.5
44  UAUUGU             1.67
45  CCAACA             1.53
46  AUAGUG             1.56
47  AAGUUC             1.66
48  GUGCUC              1.5
49  UAUCCU             1.75
50  GAGACU             1.79
51  AAAGUC             1.57
52  CCACAU             1.54
53  ACGUAC             1.58
54  CCUCGU             1.75
55  GGCACC             1.75
56  AGUAAU              1.7
57  CUCGCA             1.66
58  GGUCUC             1.73
59  CGGCCG             1.81
60  CCCUGC             1.79
61  UCGACG             1.73
62  UAGUGG             1.71
63  GUCGUA             1.63
64  CCAACG             1.71
65  GAGCCU             1.79
66  CCCUGU             1.75
67  AUAAGA              1.4
68  AAAGCU             1.63
69  GAGUUC             1.81
70  AACUGA             1.54
71  CUUAUG             1.67
72  GUCUUA             1.68
73  UUCAUU             1.77
74  GCAAUC             1.27
75  CAGCUA             1.37
